- test.system: mTOR (Homo sapiens)
- assay.overview: mTOR enzyme assay (DELFIA format, His6-S6K substrate)
- Assay type: biochemical
- condition.summary: read-out: mTOR Kinase Median IC50
pIC50: −log10 of the molar value.
quantity.kind: pIC50

As a guide, the following entries are already answered.
CCn1cc(/C=C2\Oc3cccc(O)c3C2=O)c2c(-c3ccccc3)ccnc21
7.64
Cn1cc(/C=C2\Oc3ccc(NC(=O)Nc4cccnc4)cc3C2=O)c2c(-c3ccccc3)ccnc21
6.12
CN1CC2CC1CN2C(=O)C1CCN(c2ccnc3c2c(/C=C2\Oc4ccc(NC(=O)Nc5cccnc5)cc4C2=O)cn3C)CC1 (centres unmarked)
7.72
CN(C)CCOc1cccc2c1C(=O)/C(=C/c1cn(C)c3nccc(-c4ccccc4)c13)O2
7.15
Cn1cc(/C=C2\Oc3cccc(O)c3C2=O)c2c(-c3ccc(N4CCNCC4)cc3)ccnc21
8.00

[a] CN1CCC(N(C)C(=O)C2CCN(c3ccnc4c3c(C=C3Oc5ccc(NC(=O)Nc6cccnc6)cc5C3=O)cn4C)CC2)C1 (centres unmarked)
[b] Cn1cc(/C=C2\Oc3cccc(O)c3C2=O)c2c(-c3ccc(S(=O)(=O)NCc4ccccc4)cc3)ccnc21
INPUT: Which record shows the lower pIC50: the first, a , or the second, b ? Respond using the label that marks the chosen record.
OUTPUT: a

[P] CN(C)C(=O)Nc1ccc(-c2ccnc3c2c(/C=C2\Oc4cccc(O)c4C2=O)cn3C)cc1
[Q] Cn1cc(C=C2Oc3ccc(NC(=O)Nc4cccnc4)cc3C2=O)c2c(N3CCC(C(=O)N4CC=CC4)CC3)ccnc21
INPUT: Could you kindly indicate whether P or Q has the higher pIC50 value? Respond using the label that marks the chosen record.
OUTPUT: P
(P: 8.70, Q: 8.00)

[a] Cn1cc(/C=C2\Oc3cc(O)cc(O)c3C2=O)c2c(-c3cccc(NS(C)(=O)=O)c3)ccnc21
[b] Cn1cc(/C=C2\Oc3cccc(O)c3C2=O)c2c(-c3ccc(C(F)(F)F)cc3)ccnc21
[c] Cn1cc(/C=C2\Oc3cccc(O)c3C2=O)c2c(N3CCC(C(=O)N4CCOCC4)CC3)ccnc21
[d] COCCN(C)C(=O)c1ccc(-c2ccnc3c2c(/C=C2\Oc4ccc(NC(=O)Nc5cccnc5)cc4C2=O)cn3C)cc1
[e] Cn1cc(/C=C2\Oc3ccc(NC(=O)Nc4cccnc4)cc3C2=O)c2c(N3CC4CNCC(C3)O4)ccnc21
INPUT: Put the entries in order of pIC50, starting with the largest number. Submit the labels in the order that the ranking request calls for.
OUTPUT: c, a, b, d, e

[P] Cn1cc(/C=C2\Oc3cccc(O)c3C2=O)c2c(-c3cccc(S(N)(=O)=O)c3)ccnc21
[Q] Cn1cc(/C=C2\Oc3cccc(O)c3C2=O)c2c(-c3ccc(C(=O)NCCO)cc3)ccnc21
[R] COc1ccc(-c2ccnc3c2c(/C=C2\Oc4cc(O)cc(O)c4C2=O)cn3C)cc1S(=O)(=O)N1CCOCC1
[S] Cn1c(-c2ccccc2)c(/C=C2\Oc3cc(O)cc(O)c3C2=O)c2cccnc21
INPUT: Put the entries in order of pIC50, starting with the largest number. Submit the labels in the order that the ranking request calls for.
OUTPUT: R, Q, P, S
(R: 9.70, Q: 8.80, P: 8.46, S: 7.30)

[a] Cn1cc(/C=C2\Oc3cc(O)cc(O)c3C2=O)c2c(-c3ccc(Oc4ccccc4)cc3)ccnc21
[b] COCCNC(=O)c1ccc(-c2ccnc3c2c(/C=C2\Oc4cccc(O)c4C2=O)cn3C)cc1
[c] Cn1c(-c2ccccc2)c(/C=C2\Oc3cccc(O)c3C2=O)c2cccnc21
INPUT: // smallest pIC50 at index 0, largest at the end Submit the labels in the order that the ranking request calls for.
OUTPUT: c, a, b
(c: 5.57, a: 8.44, b: 8.77)

[I] Cn1cc(/C=C2\Oc3cccc(O)c3C2=O)c2c(-c3ccc(S(=O)(=O)N4CCCC4)cc3)ccnc21
[II] COCCN1CCN(C(=O)c2ccc(-c3ccnc4c3c(/C=C3\Oc5cccc(O)c5C3=O)cn4C)cc2)CC1
INPUT: Could you kindly indicate whether I or II has the higher pIC50 value? Respond using the label that marks the chosen record.
OUTPUT: II
(II: 8.82, I: 8.46)

[a] CC1CC(C)CN(c2ccnc3c2c(/C=C2\Oc4cccc(O)c4C2=O)cn3C)C1 (centres unmarked)
[b] CN(C)CCNC(=O)c1ccc2c(c1)C(=O)/C(=C/c1cn(C)c3nccc(-c4ccccc4)c13)O2
INPUT: Which record shows the lower pIC50: the first, a , or the second, b ? Respond using the label that marks the chosen record.
OUTPUT: b
